Below is a list of entries, each paired with its recorded pIC50 value.
- targetDesc: Recombinant human LTC4 synthase (Homo sapiens, UniProt Q16873)
- Sequence (Q16873 whole entry): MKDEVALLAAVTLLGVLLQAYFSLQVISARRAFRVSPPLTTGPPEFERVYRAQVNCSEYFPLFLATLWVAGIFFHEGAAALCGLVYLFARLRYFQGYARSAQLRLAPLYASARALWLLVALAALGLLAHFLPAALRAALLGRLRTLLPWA
- testDetails: In vitro LTC4 synthase assay (LTA4 to LTC4, HTRF detection)
Note on pIC50: it is the negative log10 of concentration, concentration in mol/L.

>>> print(df.to_string())
                                   molecule  measurementlabel  resultvalue
0  CN(c1ccc(Cl)cc1)c1ccc(C(=O)c2cc(NC(=O)c3ccc(Cl)cc3Cl)cc(C(=O)O)c2)cc1 [Example 1:1]             pIC50         6.78

Incoming: Name the recorded pIC50 for O=C(O)c1cc(Nc2ccc(Cl)cc2)cc(C(=O)c2ccc(Nc3ccc(Cl)cc3)cc2)c1 [Example 3] .
Outgoing: 6.84

Incoming: Another molecule: CN(c1ccc(Cl)cc1)c1ccc(C(=O)c2cc(C(=O)O)cc(-c3ccccc3Cl)c2)nc1 [12:3]
Outgoing: 6.63

Incoming: Another molecule: CN(c1ccc(Cl)cc1)c1ccc(C(=O)c2cc(C(=O)O)cc(N3CCOCC3)c2)nc1 [9:36]
Outgoing: 6.00

Incoming: Another molecule: COc1ccc(N(C)c2cc(C(=O)O)cc(C(=O)c3ccc(N(C)c4ccc(Cl)cc4)cn3)c2)cc1 [9:28]
Outgoing: 6.86

Incoming: Another molecule: CN(Cc1cccc(Cl)c1)c1cc(C(=O)O)cc(C(=O)c2ccc(N(C)c3ccc(Cl)cc3)cn2)c1 [9:10]
Outgoing: 7.12

Incoming: Another molecule: CN(c1ccc(Cl)cc1)c1ccc(C(=O)c2cc(Nc3ccc(Cl)cc3)cc(C(=O)O)c2)cc1 [Example 10:2]
Outgoing: 7.19

Incoming: Another molecule: CN(c1ccc(Cl)cc1)c1ccc(C(=O)c2cc(Oc3ccccc3)cc(C(=O)O)c2)cc1 [8:11]
Outgoing: 7.21

Incoming: Another molecule: CN(c1ccc(Cl)cc1)c1ccc(C(=O)c2cc(NC3CCSCC3)cc(C(=O)O)c2)cc1 [10:21]
Outgoing: 6.84

Incoming: Another molecule: CN(c1ccc(Cl)cc1)c1ccc(C(=O)c2cc(Nc3ccc4c(c3)OC(F)(F)O4)cc(C(=O)O)c2)cc1 [10:18]
Outgoing: 6.98

Incoming: Another molecule: CN(c1ccc(Cl)cc1)c1ccc(C(=O)c2cc(Nc3ccccc3)cc(C(=O)O)c2)nc1 [9:11]
Outgoing: 7.21

Incoming: Another molecule: CN(c1ccc(Cl)cc1)c1ccc(C(=O)c2cc(C(=O)O)cc(-n3ccc4ccccc43)c2)nc1 [Example 16]
Outgoing: 6.59

Incoming: Another molecule: CN(c1ccc(Cl)cc1)c1ccc(C(=O)c2cc(C(=O)O)cc(N(CCCCO)c3ccccc3)c2)nc1 [9:45]
Outgoing: 7.60

Incoming: Another molecule: CCCCCCNC(=O)c1cc(C(=O)O)cc(C(=O)c2ccc(N(C)c3ccc(Cl)cc3)cn2)c1 [2:5]
Outgoing: 6.99

Incoming: Another molecule: CC(=O)N(c1ccccc1)c1cc(C(=O)O)cc(C(=O)c2ccc(N(CC3CC3)c3ccc(Cl)cc3)cn2)c1 [9:19]
Outgoing: 7.40

Incoming: Another molecule: COc1ccc(NC(=O)c2cc(C(=O)O)cc(C(=O)c3ccc(N(C)c4ccc(Cl)cc4)cc3)c2)cc1OC [2:14]
Outgoing: 6.03
